system: TO-3-N3-2 (biotin conjugate); experiment: pull-down binding Z-score (relative to library population); higher = stronger binding; details: RNA library: Library-2
Exercise: state measured pull-down binding Z-score for each of the sequences provided.
Give bare numbers.

Examples from the recorded data:
Ask: Endpoint output: pull-down binding Z-score of CAGGGCGGUGCGGCAGCCGCCACC [hsa-mir-3621] . Value?
Result: 0.241

Ask: Data request, read-out pull-down binding Z-score, for CUGUUUGGAUGACAG
Result: -0.753

Ask: Look up pull-down binding Z-score: GGAUGUCAAUCC [IAV_invivo_PB1_2_Motif_2+IAV_invivo_PB1_2_Motif_2]
Result: -0.17

Ask: So what does the record say about pull-down binding Z-score for CUGGGGAGCCGGACAGCUCCCUUCCCAG [hsa-mir-3155a] ?
Result: -0.168

Ask: For the sequence shown here, CCCGAGGCCCUUCAUGCUGCCCAGCUCGGG [hsa-mir-486-1] , give the reported pull-down binding Z-score.
Result: 0.923

Ask: Please give the measured pull-down binding Z-score for this sequence: UGGGAUUAUCCUA [DMSMaPseq_invitro_SARS-CoV-2_Motif_276]
Result: -0.249

Ask: Looking for the measured pull-down binding Z-score of CUCCUAUUGAAAAUGAACAGGAG [hsa-mir-873] , can you help?
Result: -0.299

Ask: Which measured pull-down binding Z-score value corresponds to UCCAACCUGAAAUCCUUCUGUAGGUUGAG [hsa-mir-5702] ?
Result: -0.273

Working through the 2 sequences below one at a time, give pull-down binding Z-score for each.
1. CAAAUCGCCUCUUCAAUGGAUUUG [hsa-mir-133a-1]
2. CAGGAGUGGACACCUG [hsa-mir-1246]

Result:
1: -0.209; 2: -0.238

Batch of 8 sequences: report pull-down binding Z-score for each.
1. UCCAGCUGUGUGAUAUUCUGCUG [hsa-mir-19b-1]
2. UUUUCCCUUUCUCUUGCCCUGAAA [hsa-mir-4509-1_4509-3_4509-2]
3. GAGUCCUCAUCGGAGGACUU [IAV_invivo_NS1_NEP_8_Motif_11+IAV_invivo_NS1_NEP_8_Motif_11]
4. UUCAGCCUAAAGCAAUGAGAAGCCUCUGAAAGGCUGA [hsa-mir-1827]
5. AUCACUAGGUUUCAAACUUUACUUGCUUUACAUAGAAGUUAUUUGACUCCUGGUGAU
6. AUCCAGUCCACUUAAUUCUGAGAAAGUCCACAGACUGGAUCGGGUCUUGGAUUUUAGCUGGAUUCAU [hsa-mir-6082]
7. GCGCUGCCAGAAACUGGCAAGCGC [bulge-A]
8. AUGUCAUAUUGGAGUUGGACUGCAGGGCUUCCUUUACACAAUAAAUAUUGUAUGAAGUGCUGAUGUAACCUUUACUGCAGCAUGACAU [hsa-mir-3976]

Result:
1. 0.159
2. -0.096
3. -0.368
4. -0.0588
5. -0.375
6. -0.223
7. -0.541
8. -0.081

Dear reader, for each entry below, please note its pull-down binding Z-score.
1. ACUACUGUACUUUACAGCUAGCAGU [hsa-mir-301a]
2. UGAUGUUUGUCA
3. CUUGAUGAUUUUGUUGAAAUAAUAAAAUCCCAAG

Result:
[-0.244, -0.778, -0.266]

###

test system: TO-3-N3 (biotin conjugate); test: pull-down binding Z-score (relative to library population); higher = stronger binding; conditions: RNA library: Library-2
Threshold rule: pull-down binding Z-score greater than or equal to -0.5 is Y; below that, N.

Ask: In plain terms: is recorded pull-down binding Z-score at least -0.5 for CUAACUGAGAAUAAAUAUUCUCAAUUAG ?
Result: N

More entries:
Ask: Check if pull-down binding Z-score >= -0.5 (inclusive). Item: GCAGUGGCUAACUAACAUCUUUGGCACUGU
Result: Y

Ask: Can UUUUCUGGGA [hsa-mir-4456] be said to have pull-down binding Z-score at or above -0.5?
Result: Y

Ask: Decide: is the reported value of pull-down binding Z-score for UUUACAUGCUACAGUCAAGAUGCGAA [hsa-mir-15b] equal to or greater than -0.5?
Result: Y

Ask: // inclusive: pull-down binding Z-score at least -0.5? input: AUAUAACUUCUAAAGAAACUUUGUAU
Result: N

Ask: Does the reported pull-down binding Z-score for GGCCUCACGGCC [IAV_invivo_PB1_2_Motif_9+IAV_invivo_PB1_2_Motif_9] fall at or above the -0.5 mark?
Result: Y

Ask: Does the reported pull-down binding Z-score for CAGACCAUGCCACAUCCGUCUG [hsa-mir-7152] fall at or above the -0.5 mark?
Result: N

Ask: Can UUUGUUGAAAGAAUAAAUAAACCAACAAG [hsa-mir-1264] be said to have pull-down binding Z-score at or above -0.5?
Result: Y

Ask: Given CAUAUGUGUAACAGACAUACAUACAUACAUAUG [hsa-mir-3688-2] , state whether its pull-down binding Z-score is at least -0.5.
Result: N

Ask: In plain terms: is recorded pull-down binding Z-score at least -0.5 for GGGGUCUUGCUCUAUU [hsa-mir-6088] ?
Result: Y

Ask: Determine whether this sequence has pull-down binding Z-score no lower than -0.5: GGCAUCUAGCACAGGCGGUAGAUGCU [hsa-mir-4486]
Result: N

Ask: For this sequence, is measured pull-down binding Z-score -0.5 or higher? AUAGUUUAGAAUUACAUCAAGGGAGAUAACUGU [hsa-let-7a-2]
Result: Y

###

tested on: TO-N3-2 (biotin conjugate); assay: pull-down binding Z-score (relative to library population); higher = stronger binding; settings: RNA library: Library-2
Think of -0.05 as a floor: if pull-down binding Z-score stands on it or above, it is criterion met; beneath it, criterion not met.

A selection of reference data follows.
Ask: Quick check: does CACUGCAGUUACCCUCCCCUCGGCGUUACUGAGCACUG [hsa-mir-637] have pull-down binding Z-score greater than or equal to -0.05?
Result: criterion met

Ask: Assess whether reported pull-down binding Z-score for UCAGGAUCUACUCAUGUCGUCUUUGG [hsa-mir-573] sits at -0.05 or higher.
Result: criterion met

Continuing:
Ask: I'd appreciate it if you could say whether AAAUUUACAAAACACCACCAAUUAAAGAUUUUGGUGGUUUUAAUUU [DMSMaPseq_invitro_SARS-CoV-2_Motif_425] has pull-down binding Z-score at least equal to -0.05.
Result: criterion not met

Ask: Dear colleague, could you confirm whether CCAUAAGCUGUCUAAAACUUCG [hsa-mir-4513] has pull-down binding Z-score at or above -0.05?
Result: criterion met

Ask: hey, is pull-down binding Z-score for this one >= -0.05? UUUGUUGAAAGAAUAAAUAAACCAACAAG [hsa-mir-1264]
Result: criterion not met

Ask: Test whether the sequence UUUGCCUCUCUCAGAAAAUAGAGUCAAA [hsa-mir-4694] records pull-down binding Z-score of -0.05 or higher.
Result: criterion not met

###

test system: TO-3-N3-2 (biotin conjugate); assay: pull-down binding Z-score (relative to library population); higher = stronger binding; settings: RNA library: Library-2
Label Fulfilled when pull-down binding Z-score is at or above 0.1; anything below gets Not fulfilled.

Solved entries (count: 5):
Ask: In plain terms: is recorded pull-down binding Z-score at least 0.1 for GUGAGAGAUGCUUCUAGAUCCAGGAGGCAGACCUCAA [hsa-mir-4325] ?
Result: Fulfilled

Ask: hey, is pull-down binding Z-score for this one >= 0.1? GUGUCUGGCCCCAGCAGCCCAGACU [hsa-mir-6751]
Result: Not fulfilled

Ask: Please check the record GUCUGAUAAUGGACCCCAAAAUCAGCGAAAUGCACCCCGCAUUACGUUUGGUGGACCCUCAGAU and state if its pull-down binding Z-score is at or above 0.1.
Result: Not fulfilled

Ask: Quick check: does GUGCUAAUGACCCUGUGGGUUUUACAC [SHAPE_invivo_SARS-CoV-2_Motif_252] have pull-down binding Z-score greater than or equal to 0.1?
Result: Not fulfilled

Ask: Tell me whether pull-down binding Z-score is at least 0.1 here: GGAGUUGAUGCACAGUUAUCCAGCUCC [hsa-mir-337]
Result: Not fulfilled

More entries:
Ask: State whether the measured pull-down binding Z-score reaches 0.1, counting equality as reaching it, for AUAUGUGUGUAUAUAUGUACACAUAC [hsa-mir-466]
Result: Not fulfilled

Ask: Is pull-down binding Z-score for CCUUCACUGUAGAAAAAGG [SHAPE_invivo_SARS-CoV-2_Motif_423] at or above 0.1?
Result: Not fulfilled

Ask: For this sequence, is measured pull-down binding Z-score 0.1 or higher? GCUCUACAAGAUGCUUAUUACAGAGC
Result: Fulfilled

Ask: Form field: pull-down binding Z-score at least 0.1? Entry: CAGUGCACCUUCAUGAACCG [hsa-mir-938]
Result: Fulfilled

Ask: Test whether the sequence UUUUGCAGUUGAAAGUAAUGGCAAAG [hsa-mir-548ao] records pull-down binding Z-score of 0.1 or higher.
Result: Not fulfilled

Ask: // inclusive: pull-down binding Z-score at least 0.1? input: CAGGCCACAAAUAGGCGUG
Result: Not fulfilled

Ask: Answer whether pull-down binding Z-score of GGUUUGUUACAGACACACC [SHAPE_invivo_SARS-CoV-2_Motif_243] is greater than or equal to 0.1.
Result: Not fulfilled

Ask: Confirm if pull-down binding Z-score reported for the sequence GAAGGCUAUUUGAACUCUACUAAUGUCACUAUUGCAACCUACUGUACUGGUUCUAUACCUUGUAGUGUUUGUCUUAGUGGUUUAGAUUCUUU is 0.1 or above.
Result: Not fulfilled

Ask: Is pull-down binding Z-score at least 0.1? Consider AGGUGGAAAGGGAGCAGGAGCAUCGUCUUUAAGAGGGUCAGGUACCUUUGCUCUUA [hsa-mir-6083]
Result: Fulfilled

Ask: Determine whether measured pull-down binding Z-score meets or exceeds 0.1 for GGCUGGACAGGAGAGGGCUCACCCAGG [hsa-mir-6775]
Result: Fulfilled

Ask: Reported pull-down binding Z-score at or above 0.1? UGGUUGGUUGGUUGGUUGGUUGGUUGGUUGGU [G4_r(UGGU)8]
Result: Fulfilled
